B1: Glucocorticoid receptor, residues 419 to 494; numbered along this chain, P04150 (parent)
chain: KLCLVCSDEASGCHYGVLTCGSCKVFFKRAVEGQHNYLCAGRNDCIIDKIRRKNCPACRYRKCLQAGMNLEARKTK

- Variants of: B1
- PROCEDURE DETAILS: abundance fitness (aPCA) (normalised: wild type 0, dead -1); higher = more abundant; growth selection in yeast, the domain comes from the species named
- ASSAY CONDITIONS: Homo sapiens
MEASURE NAME: abundance fitness

>>> number("K24D")
-0.006
>>> number("A40W")
-0.079
>>> number("G41K")
0.011
>>> number("M68P")
-0.928
>>> number("E32R")
-0.021
>>> number("K1G")
-0.123
>>> number("A30M")
0.051
>>> number("N54V")
-0.025
>>> number("D48Q")
-0.385
>>> number("D8K")
-0.27
>>> number("C3P")
-0.84

src = the Human Domainome abundance scans (Beltran et al. 2025)
